# METHOD: small molecules captured by biotinylated probe aFST – biochemical, small-molecule microarray, fluorescence 635/667, stem cell growth factor project, primary screen (AID 1086);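 note: score merges 667 nm fluorescence with signal-to-noise of each printed compound spot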
# ASSAY_CONTEXT: higher = more signal
Respond with 1 (yes) for composite z-score values of -0.1 and above, 0 (no) for values below.

# check: composite z-score of CCCC[C@@H]1C[C@H]1[C@@H](NC(=O)c1cccnc1)c1ccc(Cl)cc1 is greater than or equal to -0.1 0 (no)

# check: composite z-score of NC(=O)[C@@]1(Cc2ccccc2)N=C(c2ccc(OCCCO)cc2)O[C@H]1c1ccccc1 is greater than or equal to -0.1 1 (yes)

# check: composite z-score of O=C(NCc1ccccc1)[C@@H]1c2ccccc2C(=O)N(C2Cc3ccccc3C2)[C@H]1c1ccc(CO)cc1 is greater than or equal to -0.1 1 (yes)

###

# METHOD: resazurin metabolic signal in HepG2 cells – cell-based, resazurin fluorescence, 24 h, PK04 Diversity Set, profiling panel (AID 1172); note: test concentration not given here
# ASSAY_CONTEXT: HepG2 viability, higher = more signal
REPORTED_PROPERTY: z-score
Please give only the number in your answer, with no unit.

Known z-score results, listed for orientation:
C=CCN1Cc2ccccc2[C@@H]2OC(c3ccc(OCCCO)cc3)=N[C@]2(CCS(=O)(=O)c2ccccc2)C1=O	0.277
O=c1cccc(-c2ccccc2Cl)o1	-0.611
COc1cc2c(cc1O)C(c1cccs1)N(Cc1ccc([N+](=O)[O-])o1)CC2 (centres undefined)	-0.302
CCCCC(=C=CC[C@@H](O)c1ccc(CO)o1)CCO	1.15
COCCCNC(=O)[C@@]1(Sc2ccc(C)cc2)CC(=O)N(Cc2ccccc2Cl)[C@@H]1c1ccc(CO)cc1	0.683
COc1ccc(C(O)C2C=CC3C(=O)N(C)C(=O)C3N2N(c2ccccc2)c2ccccc2)c2ccccc12 (centres undefined)	-1
CCN(CC)c1ccc(N2CC=CC34O[C@@H]5C=CCOC(=O)[C@@H]5[C@H]3C(=O)N(CCCCCCO)[C@@H]4C2=O)cc1 (some centres undefined)	1.35
COc1ccc([C@H]2OC[C@@H]3CCC(=O)N32)cc1	0.219

Then this compound:
Please list z-score recorded for the compound C=C(CCCC)/C(=C/C[C@H](OC(C)=O)c1ccc(OCCO)cc1)c1cnc2ccccc2c1 0.846

###

# METHOD: JC-1 mitochondrial potential readout, lung cancer cells – cell-based, A549, JC-1 fluorescence, basal, 24 h, 100 nL, profiling panel (AID 1138);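 note: A549 lung adenocarcinoma cells under basal conditions with no added stimulus; test concentration not given here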
# ASSAY_CONTEXT: higher = more signal
REPORTED_PROPERTY: z-score
Please give only the number in your answer, with no unit.

C=C(CCCC)C(=O)CC[C@H](OC(=O)c1cccnc1)c1ccc(OCCO)cc1	1.15
O=C1OCC=C[C@H]2OC34C=CCN(Cn5nnc6ccccc65)C(=O)[C@H]3N(CCCCCO)C(=O)[C@@H]4[C@@H]12 (some centres not stated)	-1.47
COCCOC(=O)N1C(=O)[C@@]2(c3cc(C#CC4(O)CCCCCC4)ccc31)[C@H](C(=O)Nc1nc3ccccc3s1)[C@H]1C(=O)O[C@H](c3ccccc3)[C@H](c3ccccc3)N1[C@@H]2c1ccc(OCCO)cc1	-2.51
C=CCOC(=O)[C@H]1[C@@H]2C(=O)O[C@@H](c3ccccc3)[C@@H](c3ccccc3)N2[C@@H](c2ccc(OCCOC(=O)[C@H]3C[C@H]4C(=O)N[C@@H](CCCCN(C)C)C(=O)N4[C@H]3c3cccc(OCCO)c3)cc2)[C@]12C(=O)Nc1ccc(I)cc12	-1.66

Please list z-score recorded for the molecule CCOC(=O)C[C@H]1[C@H](OC(=O)c2ccc(-c3ccccc3)cc2)[C@@H](NC(=O)c2ccccc2)c2cc(OCCCO)ccc2N1C(=O)Cc1ccc(OC)cc1 1.45

Please list z-score recorded for the molecule C=C[C@H](C)[C@@H](OC(=O)Nc1ccc(SC)cc1)c1ccc(O)c2ccccc12 -1.7

Please list z-score recorded for the molecule CCOC(=O)C1=CC[C@H]2C(=O)N(c3ccccc3)C(=O)[C@@H]12 -1.44

Sourced from PubChem BioAssay
